Test system: NCI-H23 lung
Experiment: NCI tumour cell line growth inhibition, 48 h
test-readout: log10(TGI) (log10 of the value in µM)

INSERT INTO results (mol_smiles, test_readout, experimental_result) VALUES
  ('COc1ccc2c(c1)[n+](=O)c(C(=O)c1cccs1)c(C(F)(F)F)n2[O-]', 'log10(TGI)', 1.41),
  ('CCOC(=O)/C(C(N)=O)=C(\O)C(=O)/C(Br)=C(\O)c1ccccc1', 'log10(TGI)', 1.57),
  ('O=C(/C(=C(/O)c1ccccc1)c1nc2ccccc2sc1=O)c1ccccc1', 'log10(TGI)', 1.83),
  ('Cc1cccc2c(N)c3cccc(C(=O)NCC[N+](C)(C)Cc4ccc([N+](=O)[O-])s4)c3nc12', 'log10(TGI)', 1.34),
  ('O=C(CCN1CCCC1)Nc1ccc2c(NCc3ccccc3)c3ccccc3nc2c1', 'log10(TGI)', 0.20);

* * *

Test system: MDA-MB-435
Assay: NCI tumour cell line growth inhibition, 48 h
The reader will find reported TGI values listed item by item below.
test-readout: TGI (µM)

INSERT INTO assay_data (compound, test_readout, value_qualifier, experimental_result) VALUES
  ('COc1cc(/C=C2\CC/C(=C\c3cc(OC)c(O)c(OC)c3)C2=O)cc(OC)c1O', 'TGI', '=', 4.19),
  ('N#CC(CCN1CCC(Nc2ccccc2)(c2nnnn2C2CCCCC2)CC1)(c1ccccc1)c1ccccc1', 'TGI', '>', 100),
  ('Cc1ccc(/C=C/c2c(C(=O)/C=C/c3ccccc3)c(C)nc3ccccc23)cc1', 'TGI', '=', 5.59),
  ('COC(=O)[C@@H]1CS(=O)(=O)C(C(C)C)N1C(C)=O (some centres not stated)', 'TGI', '>', 100),
  ('CSC(=S)Nc1cc(C)cc(C)n1', 'TGI', '>', 31.6),
  ('O=[N+]([O-])c1ccc(NN=C2CN3CCN(C2)c2ccccc23)c([N+](=O)[O-])c1', 'TGI', '>', 100),
  ('NC(Cc1ccc(OCc2ccccc2)cc1)C(=O)NC(Cc1ccccc1)C(=O)Oc1c(Cl)c(Cl)c(Cl)c(Cl)c1Cl (configuration not stated)', 'TGI', '=', 33.9),
  ('CN(C)C(=O)Nc1nc2cc(Cl)c(Cl)cc2[nH]1', 'TGI', '=', 3.85),
  ('COc1ccc(C(=O)Cn2c(C(=O)c3ccccc3)nc3ccccc32)cc1', 'TGI', '=', 1.87),
  ('O=C1NC(=O)c2ccccc2/C1=C/c1ccc2c(c1)OCO2', 'TGI', '=', 50.1),
  ('CN(C)c1ccc(Nc2c3ccccc3nc3ccccc23)cc1', 'TGI', '=', 2.33),
  ('O=S(=O)(NC1CCCCC1)c1ccc2c(c1)OCCOCCOCCOCCO2', 'TGI', '>', 100),
  ('COc1cc2c3c(n(CCCN)c(=O)c2cc1OC)-c1ccc([N+](=O)[O-])cc1C3=O', 'TGI', '=', 37.5),
  ('COc1ccccc1-n1c(=O)n(C)c(=O)n1C(C)(C)C', 'TGI', '>', 100),
  ('COC(=O)c1c2c(c(C)[n+]([O-])c1C)C(=O)C=C(NCc1ccccc1)C2=O', 'TGI', '=', 0.391),
  ('N#Cc1nc2cc(Cl)ccc2nc1N1CCN(c2ccc([N+](=O)[O-])cc2)CC1', 'TGI', '>', 100),
  ('O=C(c1ccccc1)c1ccc2nc(-c3c(Cl)c(Cl)c(Cl)c(Cl)c3-c3nnc(-c4ccccc4)o3)[nH]c2c1', 'TGI', '>', 100);
